# system: T1, recombinant PCNA protein (N-terminal (His)6-PCNA) (human, UniProt P12004 1-261)
# T1 construct: PCNA, human; amplified by PCR from a template plasmid (Genecoepia) into pEV-L8, which has an N-terminal (His)6-tag and a TEV protease recognition site; No TEV cleavage is described; also called human PCNA; source: E. coli BL21(DE3), purified (Ni-NTA)
# T1 sequence (P12004 whole entry): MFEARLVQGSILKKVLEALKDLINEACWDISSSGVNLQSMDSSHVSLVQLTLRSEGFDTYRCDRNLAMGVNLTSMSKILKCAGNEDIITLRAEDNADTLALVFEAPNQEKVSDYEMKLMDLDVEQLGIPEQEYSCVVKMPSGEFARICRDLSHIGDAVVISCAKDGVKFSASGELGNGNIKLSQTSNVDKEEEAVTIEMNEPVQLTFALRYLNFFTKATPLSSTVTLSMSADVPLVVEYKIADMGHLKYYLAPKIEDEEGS
# procedure text: fluorescence polarisation; competition: increasing unlabeled peptide with 50 nM FITC-PL peptide and 1 µM PCNA (monomer concentration); 25 mM HEPES pH 7.4, 10% glycerol, 0.01% Triton X-100; 30 min at room temperature, read at 30°C; Ki from a modified Cheng-Prusoff equation
# measurement setup: both partners purified
attribute measured: pKi
One number for each entry, as −log10 of the molar value.

Example results:
| binder | pKi |
| --- | --- |
| HRFFAGIVWQHV (12-mer modeled after the reverse PIP Box of Akt, found by a screen of the human genome; Synthesised on CLEAR Amide resin, so the C-terminus is probably an amide (surmised); also called Akt peptide; reverse-PIP Box Akt peptide; source: synthetic peptide (solid phase, HPLC purified)) [Akt 12-mer reverse PIP Box peptide mimic] | 5.47 |
| NRQVSITGFFQR (12-mer modeled after the PIP Box of the p66 subunit of DNA polymerase δ; Synthesised on CLEAR Amide resin, so the C-terminus is probably an amide (surmised); also called p66 peptide; source: synthetic peptide (solid phase, HPLC purified)) [DNA polymerase δ (p66 subunit) 12-mer PIP Box peptide mimic] | 4.54 |
| PGQRSISLRYEG (Synthesised on CLEAR Amide resin, so the C-terminus is probably an amide (surmised); also called Abl peptide; source: synthetic peptide (solid phase, HPLC purified)) [Abl 12-mer PIP Box peptide mimic] | 4.52 |

Parameter requested: pKi. Apply to each item below.
1. RRQTSMTDFYHS (12-mer modeled after the C-terminal PIP Box of the tumor suppressor p21; Synthesised on CLEAR Amide resin, so the C-terminus is probably an amide (surmised); also called p21 peptide; p21 12-amino acid peptide; source: synthetic peptide (solid phase, HPLC purified)) [p21 12-mer PIP Box peptide mimic]
2. TLQYLLKHFFKL (12-mer modeled after the PIP Box of PI3-kinase p85α, found by a screen of the human genome; Synthesised on CLEAR Amide resin, so the C-terminus is probably an amide (surmised); also called p85α peptide; PI3-kinase (p85α regulatory domain); source: synthetic peptide (solid phase, HPLC purified)) [PI3K (p85α subunit) 12-mer PIP Box peptide mimic]
3. SAVLQKKITDYFHPKK (Synthesised on CLEAR Amide resin, so the C-terminus is probably an amide (surmised); also called control PL peptide; source: synthetic peptide (solid phase, HPLC purified)) [unlabeled POGO-ligase (PL) peptide]

RESULT:
6.32
5.54
6.87
